Tested on: T-47D
measurementDescription: Caspase cascade activation assay (Ac-DEVD-R110 fluorogenic substrate) in T-47D cells
Format: cell-based, Human
testConditions: Homo sapiens, T47D, 24 h, 24 h incubation, sigmoidal dose-response, read-out: Caspase potency EC50
Measured log10 of EC50 of individual entries
A difference of one corresponds to tenfold EC50; all values are log10 with EC50 in µM.

For orientation, consider the following solved cases.
Quick check: log10 of EC50 of Cc1ccccc1NC(=O)c1cccc2c1Cc1ccccc1-2 ?
0.04

Quick check: log10 of EC50 of O=C(Nc1ccccc1N1CCOCC1)c1cccc2c1C(=O)c1ccccc1-2 ?
0.75

Quick check: log10 of EC50 of O=C(Nc1ccccc1F)c1cccc2c1C(=O)c1ccccc1-2 ?
0.29

Quick check: log10 of EC50 of O=C(Nc1ccccc1-n1cc(Br)cn1)c1cccc2c1C(=O)c1cc([N+](=O)[O-])ccc1-2 ?
-0.52

Please examine the following record next.
Quick check: log10 of EC50 of Nc1ccc2c(c1)C(=O)c1c(C(=O)Nc3ccccc3-n3cccn3)cccc1-2 ?
-0.06

---

Tested on: T-47D
measurementDescription: Caspase cascade activation assay (Ac-DEVD-R110 fluorogenic substrate) in T-47D cells
Format: cell-based, Human
testConditions: 24 h incubation, sigmoidal dose-response, Hydrochloride, read-out: Caspase potency EC50
pEC50: −log10 of the molar value.
quantityName: pEC50

Quick check: pEC50 of CN(C)Cc1ccccc1NC(=O)c1cccc2c1C(=O)c1ccccc1-2.Cl [Example 24, Hydrochloride] ?
< 5.00

---

Test system: T-47D
measurementDescription: Caspase cascade activation assay (Ac-DEVD-R110 fluorogenic substrate) in T-47D cells
Assay type: cell-based, Human
testConditions: Homo sapiens, T47D, 24 h, 24 h incubation, sigmoidal dose-response, read-out: Caspase potency EC50
Experimental: Human breast cancer cell lines T-47D was grown according to media component mixtures designated by American Type Culture Collection+10% FCS (Invitrogen Corporation), in a 5% CO2-95% humidity incubator at 37° C. […] Using a fluorescent plate reader (Model 1420 Wallac Instruments), an initial reading (T=0) was made about 1-2 min after addition of the substrate solution, employing excitation at 485 nm and emission at 530 nm, to determine the background fluorescence of the control sample. […]
quantityName: log10(EC50) (log10 of the value in nM)
A difference of one corresponds to tenfold EC50; all values are log10 with EC50 in nM.

For orientation, consider the following solved cases.
Quick check: log10(EC50) of O=C(Nc1ccccc1Br)c1cccc2c1C(=O)c1ccccc1-2 ?
3.55

Quick check: log10(EC50) of CN(C)c1ccccc1NC(=O)c1cccc2c1C(=O)c1ccccc1-2 ?
3.19

Quick check: log10(EC50) of O=C(Nc1ccccc1-n1cccn1)c1cccc2c1C(=O)c1cc([N+](=O)[O-])ccc1-2 ?
2.36

Quick check: log10(EC50) of O=C(Nc1ccccc1CBr)c1cccc2c1C(=O)c1ccccc1-2 ?
3.46

Quick check: log10(EC50) of O=C(Nc1ccccc1OC(F)F)c1cccc2c1C(=O)c1ccccc1-2 ?
2.84

Quick check: log10(EC50) of O=C(Nc1ccccc1-n1cccn1)c1cccc2sc3ccccc3c12 ?
3.11

Quick check: log10(EC50) of COC(=O)c1ccccc1NC(=O)c1cccc2c1C(=O)c1ccccc1-2 ?
2.62

Quick check: log10(EC50) of O=C(Nc1ccccc1[N+](=O)[O-])c1cccc2c1C(=O)c1ccccc1-2 ?
3.40

Quick check: log10(EC50) of [N-]=[N+]=Nc1ccccc1NC(=O)c1cccc2c1C(=O)c1ccccc1-2 ?
3.15

Quick check: log10(EC50) of O=C(Nc1ccccc1-c1ccccc1)c1cccc2c1C(=O)c1ccccc1-2 ?
3.18

Further cases:
Quick check: log10(EC50) of COc1ccccc1NC(=O)c1cccc2c1C(=O)c1ccccc1-2 ?
2.76

Quick check: log10(EC50) of O=C(Nc1ccccc1-n1cccn1)c1cccc2c1Cc1ccccc1-2 ?
3.20

Quick check: log10(EC50) of CCOc1ccccc1NC(=O)c1cccc2c1C(=O)c1ccccc1-2 ?
3.32

Quick check: log10(EC50) of O=C(Nc1ccccc1N1CCCCC1)c1cccc2c1C(=O)c1ccccc1-2 ?
3.28

Quick check: log10(EC50) of [N-]=[N+]=Nc1ccc2c(c1)C(=O)c1c(C(=O)Nc3ccccc3-n3cccn3)cccc1-2 ?
2.83

Quick check: log10(EC50) of Cc1ccccc1NC(=O)c1cccc2c1C(=O)c1ccccc1-2 ?
2.76
